Target: T1, Murine APRIL (mouse, UniProt Q9D777 105-241, limits assumed)
T1 sequence (looked up): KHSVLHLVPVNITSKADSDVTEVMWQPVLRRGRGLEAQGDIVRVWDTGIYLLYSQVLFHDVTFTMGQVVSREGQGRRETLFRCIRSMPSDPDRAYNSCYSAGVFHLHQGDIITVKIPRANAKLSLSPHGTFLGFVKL
Assay: shotgun scan, phage display
Cut-off 2 on F (APRIL), inclusive. At or above means True; below means False.

Inquiry: Determine whether this binder has F (APRIL) no lower than 2: SLSCRKEQGKFYDHLARDCISCASICGQHPKQCAYFCENKLR (receptor, phage library variant, format as m9) [TACI_d2 L83A]
Reply text: True

Inquiry: Determine whether this binder has F (APRIL) no lower than 2: SLSCAKEQGKFYDHLLRDCISCASICGQHPKQCAYFCENKLR (receptor, phage library variant, format as m9) [TACI_d2 R72A]
Reply text: False

Inquiry: Determine whether this binder has F (APRIL) no lower than 2: SLSCRAEQGKFYDHLLRDCISCASICGQHPKQCAYFCENKLR (receptor, phage library variant, format as m9) [TACI_d2 K73A]
Reply text: False

Inquiry: Determine whether this binder has F (APRIL) no lower than 2: SLSCRKEQGKFYDHLLRDCISCASICGQHPTQCAYFCENKLR (receptor, phage library variant, format as m9) [TACI_d2 K98T]
Reply text: True

Inquiry: Determine whether this binder has F (APRIL) no lower than 2: SLSCRKEQGKFYDHLLRDCISCASICGQHPKQCAAFCENKLR (receptor, phage library variant, format as m9) [TACI_d2 Y102A]
Reply text: False

Inquiry: Determine whether this binder has F (APRIL) no lower than 2: SLSCRKEQGKFYDHLLRDCISCASICGQHPKQCAYFCENKLG (receptor, phage library variant, format as m9) [TACI_d2 R109G]
Reply text: False

***
Inquiry: Determine whether this binder has F (APRIL) no lower than 2: SLSCREEQGKFYDHLLRDCISCASICGQHPKQCAYFCENKLR (receptor, phage library variant, format as m9) [TACI_d2 K73E]
Reply text: True

Inquiry: Determine whether this binder has F (APRIL) no lower than 2: SLSCRKEQGKFYDHLLRDCISCASICGQHPKQCAYFCENTLR (receptor, phage library variant, format as m9) [TACI_d2 K107T]
Reply text: False

Inquiry: Determine whether this binder has F (APRIL) no lower than 2: SLSCRTEQGKFYDHLLRDCISCASICGQHPKQCAYFCENKLR (receptor, phage library variant, format as m9) [TACI_d2 K73T]
Reply text: True

Inquiry: Determine whether this binder has F (APRIL) no lower than 2: SLSCRKEQGKFYDHLLRDCISCAAICGQHPKQCAYFCENKLR (receptor, phage library variant, format as m9) [TACI_d2 S91A]
Reply text: True

Inquiry: Determine whether this binder has F (APRIL) no lower than 2: SLSCRKEQGKFYDHLLRDCISCASICGQDPKQCAYFCENKLR (receptor, phage library variant, format as m9) [TACI_d2 H96D]
Reply text: True
